System: SNB-78 CNS
experiment: NCI tumour cell line growth inhibition, 48 h
TGI overview

> print(dat)
                         compound.structure  value.measured
1  O=C(O)[C@@H](NS(=O)(=O)c1ccc(F)cc1)c1ccccc1        > 100 µM

-- ask Given the entry Cc1cc2c(cc1O)[nH]c1cc3c(cc12)C=CC(C)(C)O3 , report its measured TGI.
-- reply > 25 µM

-- ask Subsequent entry: CCCCCCCCCCCCC(=O)CCCCC(=O)O
-- reply > 100 µM

* * *

System: OVCAR-3 ovarian
experiment: NCI tumour cell line growth inhibition, 48 h; in the data active = GI50 below about 0.43 µM; inactive = the rest
Pick one: yes (1) (active), no (0) (inactive)

-- ask Please let me know the test result on file for CCN(Cc1cc(F)cc(F)c1)c1ccc(CO)c(Cl)c1 .
-- reply yes (1)

* * *

Test system: MDA-MB-435
experiment: NCI tumour cell line growth inhibition, 48 h
// values below are reported TGI

Example compounds with recorded TGI:
> print(dat)
                                   compound  value.measured
1                Oc1ccc(OCCOc2ccc(O)cc2)cc1        > 100 µM
2  O=C(Nc1ccn(C2CCC(CO)O2)c(=O)n1)c1ccccc1 (stereo not given)        > 100 µM
3                   CS(=O)(=O)OCOS(C)(=O)=O        > 100 µM
4                  O=C(O)Cc1cc(F)ccc1C(=O)O        > 100 µM

# ---- query compound ----
-- ask Fill in the blank: the reported TGI of C(=N\c1cc2cc(Sc3ccccc3)ccc2[nH]1)/c1ccccc1 is ____.
-- reply > 12.5 µM

* * *

System: RPMI-8226 leukemia
experiment: NCI tumour cell line growth inhibition, 48 h
measured.parameter: TGI

As a guide, the following entries are already answered.
compound	value.measured
COc1cc(/C=C2\CCC(C)(CN(C)C)C2=O)cc(OC)c1OC (centres undefined)	> 72.9 µM
c1ccc(COC2NCCN2Cc2ccccc2)cc1 (centres undefined)	> 100 µM
CC(=O)N(C)C(C(=O)N1CC(C)CC1C(=O)N(C)C1C(=O)NC(CC(C)C)C(=O)N2CC(C)CC2C(=O)NC(CC(C)C)C(=O)N(C)C(C(C)C)C(=O)N2CCCC2C(=O)N(C)C(CC(C)C)C(=O)NCC(=O)OC1C)C(C)C (centres undefined)	> 100 µM

# context switch: different compound, same TGI
-- ask // returns reported TGI for input Cc1cccc(C)c1NC(=O)CCC(=O)NNc1nnc(C)n1N
-- reply > 100 µM

* * *

Tested on: RPMI-8226 leukemia
experiment: NCI tumour cell line growth inhibition, 48 h
measured.parameter: log10(TGI) (log10 of the value in µM)
The base-10 logarithm of TGI, taken with TGI in µM, is what appears here.

molecule	log10(TGI)
C#CCCOC(=O)CC1=C(C)/C(=C/c2ccc(S(C)=O)cc2)c2ccc(F)cc21 (stereo not given)	1.51
Cc1ccc(N(CC(=O)Nc2ccc(S(=O)(=O)NC3CCN(C)CC3)cc2)S(=O)(=O)c2ccc(Cl)cc2)cc1	0.90
CCCCCCCCCCCCC(=O)CCCCC(=O)O	1.61
C#CC1(O)C(COP(=O)(O)OC(COCCCCCCCCCCCCCCCCCC)COP(=O)(O)OCC2OC(n3cc(C)c(=O)[nH]c3=O)CC2N=[N+]=[N-])OC(n2ccc(N)nc2=O)C1O (stereo not given)	0.02
COc1cc(/C=C/[N+](=O)[O-])c([N+](=O)[O-])cc1OC	0.76

Now for the molecule whose log10(TGI) we want.
-- ask Field: log10(TGI) (RPMI-8226 leukemia). Entry: CCC(=O)OCC1OC(n2cnc3c(=S)nc(N)[nH]c32)C(OC(=O)CC)C1OC(=O)CC (stereo not given)
-- reply 1.83

* * *

Each item that follows carries a reported TGI.
Tested on: SF-295 CNS
experiment: NCI tumour cell line growth inhibition, 48 h

Please review the following examples before continuing.
> print(dat)
                                   compound  measured.parameter  value.measured
1  Cc1cn(CC2=NCC(O)CN2)c(=O)[nH]c1=O (stereo unspecified)                 TGI        > 100 µM
2  O=C(C(=O)c1cc(-c2ccccc2)nc2ccc3ccccc3c12)c1ccccc1                 TGI        > 100 µM
3  O=C1c2ccccc2C(=O)N1[C@@H](Cc1ccccc1)C(=O)n1cccc1CO                 TGI        > 100 µM
4  COc1cc2c(Oc3ccc4[nH]c(C)cc4c3F)ncnc2cc1OCCCN1CCCC1                 TGI         13.2 µM
5  COc1cc2c3c(c1Oc1nnnn1-c1ccccc1)-c1c(ccc4c1OCO4)C[C@H]3N(C)CC2                 TGI        > 100 µM

Turning now to a further record.
-- ask // lookup TGI for CNc1ccccc1S(=O)(=O)c1ccccc1[N+](=O)[O-]
-- reply > 100 µM

* * *

TGI overview
Test system: SF-268 CNS
experiment: NCI tumour cell line growth inhibition, 48 h

// known answers, use as guide
> print(dat)
                         compound.structure  measured.parameter  value.measured
1  CCOc1cc(NC(C)=O)ccc1C(=O)NNS(=O)(=O)c1ccc(Cl)cc1Cl                 TGI         > 50 µM
2  Cc1ccc(N(CC(=O)Nc2ccc(S(=O)(=O)NC3CCN(C)CC3)cc2)S(=O)(=O)c2ccc(Cl)cc2)cc1                 TGI         8.26 µM

Please find the next compound below.
-- ask Give the measured TGI of CC1(C)C(=NNC(=S)NN)C(C)(C)C1=NNC(=S)NN .
-- reply > 100 µM

* * *

System: ACHN renal
experiment: NCI tumour cell line growth inhibition, 48 h
// reported TGI for each item listed

> print(dat)
                     compound  value.measured
1  Oc1ccc(OCCOc2ccc(O)cc2)cc1        > 100 µM

-- ask # query: TGI of entry COc1ccc(NC2C(=O)C3(C)CCC2C3(C)C)cc1 (stereo unspecified)
-- reply > 100 µM

-- ask Can you check CCOC(=O)c1c(Sc2ccc([N+](=O)[O-])cc2[N+](=O)[O-])nc2c3ccccc3ccn12 next?
-- reply > 100 µM

-- ask Continue with CCOC(=O)c1csc(NC(=O)CN2CCN(c3ccccc3)CC2)n1
-- reply > 100 µM

-- ask One more compound: NCCC1([N+](=O)[O-])C=CN=CC1 (stereo unspecified)
-- reply > 100 µM

-- ask Also Cn1c(C2CCCc3c2c2ccccc2n3C)cc2ccccc21 (stereo unspecified) ?
-- reply > 318 µM

-- ask Follow-up entry: C=C(C)[C@@H]1/C=C(/C(C)C)CC[C@@]2(C)OC2CC[C@H](C)CC1=O (stereo partly specified)
-- reply > 55 µM

-- ask Now this one: CSc1ccc(C2=NN(c3ccccc3)C(c3ccc(-c4cc(Cl)c(Cl)cc4Cl)o3)C2)cc1 (stereo unspecified)
-- reply > 100 µM

-- ask Record: CCOC(=O)c1cc(C(=O)c2cc(OC)cc(OC)c2)n2nc(C)ccc12
-- reply > 100 µM

* * *

Tested on: A549 NSCLC
experiment: NCI tumour cell line growth inhibition, 48 h
# GI50 per entry

> print(dat)
              compound  value.measured
1  CCCCN1C=CCN(CCCC)C1        > 100 µM

-- ask Given COc1cc(C=C2c3ccccc3C(=O)c3ccccc32)ccc1OCCCCOc1cc2c(cc1OC)C(=O)N1CCCC1C=N2 (centres undefined) , state its recorded GI50.
-- reply 0.785 µM

-- ask # repeat for COc1cc(C(=O)/C=C/c2c(-c3cccs3)nc3sccn23)cc(OC)c1OC
-- reply 1.58 µM

-- ask Now consider Nc1nc(SCc2ccccc2)nc2[nH]ncc12 and answer again.
-- reply 13.6 µM

-- ask // next record O=C1NC(=O)/C(=C/c2ccc3ncccc3c2)S1
-- reply > 23.1 µM

-- ask Queued: CCN(Cc1cc(F)cc(F)c1)c1ccc(CO)c(Cl)c1
-- reply 2.36 µM

-- ask Another compound: COc1cc(Nc2ncc3c(C)nc(-c4cccc(C(F)(F)F)c4)n3n2)cc(OC)c1OC
-- reply 3.51 µM

-- ask O=[N+]([O-])c1cc([N+](=O)[O-])c(NN=C(c2ccc(O)cc2)c2ccc(O)cc2)cc1Cl ?
-- reply 2.84 µM

-- ask Next compound up: CC(c1ccccc1)N1C(=O)CSC1=S (centres undefined)
-- reply 4.67 µM

* * *

System: T-47D breast
experiment: NCI tumour cell line growth inhibition, 48 h
measured.parameter: GI50

Use these answered entries as a reference point.
> print(dat)
                                   compound  value.measured
1  Cc1ccc(N(CC(=O)Nc2ccc(S(=O)(=O)NC3CCN(C)CC3)cc2)S(=O)(=O)c2ccc(Cl)cc2)cc1         2030 nM
2  Cn1cc(-c2csc(-c3c[nH]c4ccc(F)cc34)n2)c2cccnc21         2330 nM

-- ask # lookup: GI50 of CCC(=O)OCC1OC(n2cnc3c(=S)nc(N)[nH]c32)C(OC(=O)CC)C1OC(=O)CC (centres undefined)
-- reply 3170 nM

-- ask Next compound: COc1ccccc1/C=C/C(=O)c1ccc(Nc2nc(Nc3ccc(F)cc3)nc(Nc3ccc(F)cc3)n2)cc1
-- reply 8010 nM
